Test: binders of probe aFGF10 on microarray, primary screen, stem cell growth factor project, biochemical, small-molecule microarray, fluorescence 635/667 (AID 1071);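 also: score merges 667 nm spot intensity and signal to noise from triplicate slides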
Conditions: higher = more signal
Field: composite z-score. Provide a value for each of the compounds that follow.
Answers are plain numbers.

Some compounds with known composite z-score results, for comparison:
- Cc1ccc(S[C@]2(C(=O)NC3CC3)CC(=O)N(Cc3cc(C(F)(F)F)cc(C(F)(F)F)c3)[C@@H]2c2ccc(CO)cc2)cc1: 0.138
- C=CCC(OC(C)=O)[C@@H]1[C@@H](N(Cc2cc3ccccc3o2)C(=O)c2ccc(C)cc2)c2cc(OCCCO)ccc2N1C(=O)c1ccc2ccccc2n1 (some centres undefined): 0.394
- CN(C)C(=O)[C@@]1(Cc2ccccc2N=[N+]=[N-])N=C(c2ccc(OCCCO)cc2)O[C@H]1c1ccccc1CN=[N+]=[N-]: 0.665

Now, please, on to the next compound.
q: What composite z-score value was documented for this compound, CCCC=C(CCC)[C@@H](NC(=O)c1ccccc1)c1ccccc1 ?
a: -0.41

---

Test: small-molecule microarray binders of probe aWnt5a, primary screen, biochemical, biotinylated probe, 635/667 nm fluorescence (AID 1113);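 also: score merges 667 nm fluorescence intensity with signal-to-noise per printed feature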
Details: higher = more signal
Readout Name: composite z-score
Numbers only.

• COC(=O)Cn1c(C(=O)N2CCCC2)cc2c1C[C@H]1CN(C(=O)c3ccccc3)[C@@](Cc3ccc(OC)cc3)(C(=O)OC)[C@@H]21 = 0.129
• Cc1ccc(N2C(=O)c3ccccc3[C@](C)(C(=O)O)[C@@H]2c2ccc(CO)cc2)nc1 = -0.304
• CCCC[C@@H]1C[C@H]1[C@@H](NC(=O)c1cccs1)c1ccc(Cl)cc1 = 0.0095
• O=C/C=C/c1ccccc1Cl = -0.0499
• C=CCC(OC(C)=O)[C@@H]1[C@@H](N(Cc2cccc3ccccc23)C(=O)Cc2ccc(F)cc2)c2cc(OCCCO)ccc2N1C(=O)Cc1ccc2ccccc2c1 (stereo partly drawn) = -0.0179
• COc1cc(CO)cc(I)c1O[C@H]1C=C(C(=O)NCCO)C[C@@H](N(CC2CCCCC2)C(=O)c2cc3ccccc3oc2=O)[C@@H]1O = -0.185

# map each compound to its composite z-score
1. O=C(CS)NCCCCCNC(=O)[C@H]1C[C@H]2C(=O)N3CCC[C@H]3C(=O)N2[C@H]1c1ccc(O)cc1
2. NC(=O)[C@H]1[C@@H]2C(=O)O[C@@H](c3ccccc3)[C@@H](c3ccccc3)N2[C@@H](c2ccc(O)cc2)[C@]12C(=O)Nc1ccc(C#CCCO)cc12
3. CO[C@@H]1COC(=O)CC=C[C@@H](C)[C@H](OC)COC(=O)CC=C[C@H]1C
4. NC(=O)NCC#Cc1ccc2c(c1)[C@]1(C(=O)N2)[C@H](c2ccccc2OCCO)N2[C@H](c3ccccc3)[C@H](c3ccccc3)OC(=O)[C@H]2[C@@H]1C(=O)N1CCN(c2ncccn2)CC1
5. O=C(CS)NCCCCCNC(=O)[C@H]1C[C@H]2C(=O)N[C@@H](Cc3ccccc3)C(=O)N2[C@H]1c1ccc(O)cc1
6. CO[C@@H]1COC(=O)[C@@H]2CCCN2C(=O)CC=C[C@@H](C)[C@H](OC)COC(=O)[C@@H]2CCCN2C(=O)CC=C[C@H]1C

a:
[-0.197, -0.175, -0.24, -0.124, -0.0977, -0.156]

Would you mind giving composite z-score for every compound in the list below?
1. [N-]=[N+]=NCc1ccccc1C[C@@]1(C(=O)O)N=C(c2ccc(OCCCO)cc2)O[C@@H]1c1ccccc1N=[N+]=[N-]
2. COC(=O)C(CC#Cc1ccc2c(c1)[C@]1(C(=O)N2)[C@H](C(=O)N2CCCCCCC2)[C@H]2C(=O)O[C@H](c3ccccc3)[C@H](c3ccccc3)N2[C@@H]1c1ccc(O)cc1)C(=O)OC
3. C=C(COC)/C(=C/C[C@@H](OC(=O)c1ccncc1)c1ccc(OCCO)cc1)c1cc(C(=O)OC)ccc1OC
4. C=C(COC)/C(=C/C[C@@H](OC(C)=O)c1cccc(OCCO)c1)c1cc(C(=O)OC)ccc1OC
5. C=CCNC(=O)[C@@H]1[C@H]2C(=O)O[C@H](c3ccccc3)[C@H](c3ccccc3)N2[C@H](c2ccc(OCCO)cc2)[C@@]12C(=O)N(C(=O)OCCOC)c1ccc(C#CC3(O)CCCCCC3)cc12

a:
1: -0.0236; 2: -0.125; 3: -0.175; 4: -0.091; 5: 0.0267

Return reported composite z-score values for all items listed beneath this line.
1. [N-]=[N+]=NCc1ccccc1[C@H]1OC(c2ccc(OCCCO)cc2)=N[C@@]1(Cc1ccccc1N=[N+]=[N-])C(=O)NCc1ccccc1
2. C[C@@H]1C=CCC(=O)OC[C@H]2O[C@@H](C=C[C@@H]2O)[C@H](C)C=CCC(=O)OC[C@H]2O[C@H]1C=C[C@@H]2O
3. O=C(NCc1ccccc1)[C@@]1(CCS(=O)(=O)c2ccccc2)COC(c2ccc(OCCCO)cc2)=N1

a:
[0.239, 0.275, 0.111]

Could you tell me composite z-score for each of these compounds? They are listed below.
1. C[C@H]1C2[C@H](Cc3ccccc3)NC(=O)[C@]23C(=O)N[C@H](Cc2ccccc2)C(=O)N[C@@H](Cc2ccccc2)C(=O)NC/C=C\C/C=C/C3[C@@H]2O[C@]12C (stereo partly drawn)
2. C[C@@H]1CC[C@H]2C(=O)N3[C@@H](CC[C@@H](C)[C@@H]3c3cccc(N4CCOCC4)c3)C(=O)N2[C@H]1c1cccc(Br)c1
3. CC(=O)Nc1ccc([C@H]2[C@H](C)CC[C@H]3C(=O)N4[C@@H](CC[C@@H](C)[C@@H]4c4ccc(NC(C)=O)cc4)C(=O)N32)cc1

a:
-0.199
-0.0357
-0.176
